B1: DNA replication licensing factor MCM3 (Mus musculus), P25206 (parent)
chain: MAGTVVLDDVELREAQRDYLDFLDDEEDQGIYQNKVRELISDNQYRLIVSVNDLRRKNEKRANRLLNNAFEELVAFQRALKDFVASIDATYAKQYEEFYIGLEGSFGSKHVSPRTLTSCFLSCVVCVEGIVTKCSLVRPKVVRSVHYCPATKKTIERRYSDLTTLVAFPSSSVYPTKDEENNPLETEYGLSVYKDHQTITIQEMPEKAPAGQLPRSVDVILDDDLVDKVKPGDRIQVVGTYRCLPGKKGCYTSGTFRTVLIACNVKQMSKDIQPAFSADDIAKIKKFSKTRSKDVFEQLARSLAPSIHGHDYVKKAILCLLLGGVERELENGSHIRGDINILLIGDPSVAKSQLLRYVLCTAPRAIPTTGRGSSGVGLTAAVTTDQETGERRLEAGAMVLADRGVVCIDEFDKMSDMDRTAIHEVMEQGRVTIAKAGIHARLNARCSVLAAANPVYGRYDQYKTPMENIGLQDSLLSRFDLLFIMLDQMDPEQDREISDHVLRMHQYRAPGEQDGDALPLGSSVDILATDDPDFTQDDQQDTRIYEKHDSLLHGTKKKKEKMVSAAFMKKYIHVAKIIKPTLTQESAAYIAEEYSRLRSQDSMSSDTARTSPVTARTLETLIRLATAHAKARMSKTVDLQDAEEAVELVQYAYFKKVLEKEKKRKKASEDESDLEDEEEKSQEDTEQKRKRRKTHAKDGESYDPYDFSEAETQMPQVHTPKTDDSQEKTDDSQETQDSQKVELSEPRLKAFKAALLEVFQEAHEQSVGMLHLTESINRNREEPFSSEEIQACLSRMQDDNQVMVSEGIVFLI
partner: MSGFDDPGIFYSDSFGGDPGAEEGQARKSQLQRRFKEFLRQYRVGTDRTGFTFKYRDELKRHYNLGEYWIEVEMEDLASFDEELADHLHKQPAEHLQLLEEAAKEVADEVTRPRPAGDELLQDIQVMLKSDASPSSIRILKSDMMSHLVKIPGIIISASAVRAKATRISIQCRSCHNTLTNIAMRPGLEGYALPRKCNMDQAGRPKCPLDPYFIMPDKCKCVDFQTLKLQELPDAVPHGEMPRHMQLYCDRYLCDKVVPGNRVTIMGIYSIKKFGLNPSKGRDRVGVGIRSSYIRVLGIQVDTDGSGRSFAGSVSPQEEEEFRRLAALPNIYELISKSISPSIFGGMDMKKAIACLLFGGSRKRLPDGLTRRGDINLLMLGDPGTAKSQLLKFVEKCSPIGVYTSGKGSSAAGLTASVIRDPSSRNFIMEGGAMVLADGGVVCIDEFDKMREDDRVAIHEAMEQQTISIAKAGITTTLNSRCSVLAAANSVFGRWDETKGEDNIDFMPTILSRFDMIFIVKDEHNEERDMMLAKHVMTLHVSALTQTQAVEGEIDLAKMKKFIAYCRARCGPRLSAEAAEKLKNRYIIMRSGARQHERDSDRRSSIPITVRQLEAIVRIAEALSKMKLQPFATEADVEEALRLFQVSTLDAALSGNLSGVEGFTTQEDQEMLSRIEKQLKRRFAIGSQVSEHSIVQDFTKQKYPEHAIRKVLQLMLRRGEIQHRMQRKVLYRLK

Variants of: B1
Conditions: with mcm5_mouse Mcm5, P49718
measuredParameter: effect of a mutation on the interaction

S112A = decreasing interaction
S112A;T719A = decreasing interaction
S112A;S611A = decreasing interaction
